Kindly supply the reported growth values for the records listed here.
Tested on: SF-295 CNS
Assay: NCI-60 one-dose screen, 48 h (100 = growth as untreated, 0 = no growth, -100 = all killed)
Conditions: 10 µM unless noted
Compounds without any hit were thinned out: in the full panel of roughly 83,000, 20% have a hit.
One number for each entry, in %.

>>> recorded_number("C=CC[n+]1c(/C=C2\\Sc3ccccc3N2C)sc(-c2ccccc2)c1-c1ccccc1")
-17.1
>>> recorded_number("CC(=O)Oc1ccccc1C(=O)N=C1[Se]CCN1C(=O)c1ccccc1OC(C)=O")
-67.6
>>> recorded_number("CC1(C)NC(=O)c2[nH]c3c(Cl)c(Cl)ccc3c2C1C#N (stereo not given)")
59.3
>>> recorded_number("C1=C\\COCc2cc(ccc2OCCN2CCCC2)Nc2nccc(n2)-c2cccc(c2)COC/1")
-33.8

Now for a further compound.
**Query** Form field: reported growth of `CC(C)Nc1cc(-c2c[nH]c(C(=O)N[C@H](CO)c3cccc(Cl)c3)c2)c(Cl)cn1`
**Result** 45.6

* * *

Kindly supply the reported growth values for the records listed here.
System: OVCAR-5 ovarian
Experiment: NCI-60 one-dose screen, 48 h (100 = growth as untreated, 0 = no growth, -100 = all killed)
Conditions: 10 µM unless noted
About 83,000 compounds went through this panel and 20% of them were active in at least one assay; those are over-represented in the sample as a whole.
One number for each entry, in %.

>>> recorded_number("CCCCN1CCCC[C@@H]1C(=O)N[C@H](C(=O)N(C)[C@H](CCc1nc(C(=O)N[C@@H](Cc2ccccc2)C[C@H](C)C(=O)OC)cs1)C(C)C)C(C)C")
95.1
>>> recorded_number("COc1ccc(-c2cc3c(oc2=O)-c2ccccc2OC3OC(C)=O)cc1 (centres undefined)")
111
>>> recorded_number("Cc1nn(-c2nc3ccccc3[nH]2)c2c1C(c1ccc(OCc3ccc(F)cc3)cc1)CC(=O)N2 (centres undefined)")
98.5

**Query** Lab note: need growth with OVCAR-5 ovarian for entry `Nc1c(C(=O)c2ccccc2)sc2nc(-c3cccs3)cc(-c3cccs3)c12` , please look it up.
**Result** 84.5

* * *

Tested on: BT-549 breast
Assay: NCI-60 one-dose screen, 48 h (100 = growth as untreated, 0 = no growth, -100 = all killed)
Conditions: 10 µM unless noted
Compounds without any hit were thinned out: in the full panel of roughly 83,000, 20% have a hit.
Entries get a class label from measured growth. See ranges: class A (below 10%), class B (10% to below 80%), class C (80% or more)

**Query** Lab note: which band did `COC(=O)[C@]12CC[C@@H](C)[C@H](C)[C@@H]1C1=CC[C@@H]3[C@@]4(C)C(C=O)=C[C@@](C)(COS(C)(=O)=O)C4=CC[C@@]3(C)[C@]1(C)CC2` land in?
**Result** class A

**Query** Lab note: which band did `C=CC(=O)N1CCC[C@@H](n2nc(-c3ccc(Oc4ccccc4)cc3)c3c(N)ncnc32)C1` land in?
**Result** class B

**Query** Lab note: which band did `CNC(=O)c1nn(C)c2c1C(C)(C)Cc1cnc(Nc3ccc(N4CCN(C)CC4)cc3)nc1-2` land in?
**Result** class A

**Query** Lab note: which band did `COC(=O)[C@@H](C)CNS(=O)(=O)N(c1cc(C(F)(F)F)cc(C(F)(F)F)c1)C1CCN(Cc2ccc(F)cc2)CC1` land in?
**Result** class C
